Values from paper PMC6394493

- EXPERIMENTAL_DETAILS: Plasma pharmacokinetics (LC–MS/MS, non-compartmental analysis)
- Format: in vivo, Japanese patients
- CONDITIONS: human, plasma, oral, 400 mg, Cycle 1 Day 28; 400 mg bid; n = 4; read-out: AUClast, Median
ENDPOINT_NAME: AUC(0-t)

[[record]]
smiles = "Cn1c(=O)n(-c2ccc(C(C)(C)C#N)cc2)c2c3cc(-c4cnc5ccccc5c4)ccc3ncc21"
recorded_measurement = "34100 ng·h/mL"


---

- EXPERIMENTAL_DETAILS: Plasma pharmacokinetics (LC–MS/MS, non-compartmental analysis)
- Assay type: in vivo, Japanese patients
- CONDITIONS: human, plasma, oral, 400 mg, Cycle 1 Day 8; 400 mg bid; n = 1; read-out: AUCinf, Median
ENDPOINT_NAME: AUC(0-inf) (ng·h/mL)

[[record]]
compound = "Cn1c(=O)n(-c2ccc(C(C)(C)C#N)cc2)c2c3cc(-c4cnc5ccccc5c4)ccc3ncc21 [BEZ235]"
endpoint_name = "AUC(0-inf)"
recorded_measurement = 2790

